Reference source for all entries: patent US10144706B2

# assay target: PD-1/PD-L1 interaction (PD-1-Ig / PD-L1-His) (Homo sapiens)
# Construct: hPDL1(18-239)-TVMV-His; TVMV protease site linker (C); made in house; host or cells: HEK293T
# Sequence (Q9NZQ7 with tags, fused parts or gaps): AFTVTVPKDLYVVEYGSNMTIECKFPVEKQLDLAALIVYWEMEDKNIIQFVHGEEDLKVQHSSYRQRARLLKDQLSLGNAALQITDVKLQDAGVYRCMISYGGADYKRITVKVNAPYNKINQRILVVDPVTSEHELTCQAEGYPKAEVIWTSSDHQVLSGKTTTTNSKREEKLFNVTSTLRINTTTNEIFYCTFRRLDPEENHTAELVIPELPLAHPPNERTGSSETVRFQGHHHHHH
# protocol details: PD-1/PD-L1 Homogenous Time-Resolved Fluorescence (HTRF) binding assay
# run parameters: IC50 range class; PD-L1-His 10 nM, PD-1-Ig 20 nM; read-out: Range or IC50
Measured IC50 accompanies every entry in the list below.

compound structure	IC50
NCCCOc1cccc(-c2cccc(OCCCN)c2Cl)c1Cl	90.1 to 1000 nM
Cc1c(COc2cc(OCc3cncc(C#N)c3)c(CO)cc2Cl)cccc1-c1cccc(COc2cc(OCc3cncc(C#N)c3)c(CN[C@H](CO)CC(=O)O)cc2Cl)c1C	0.04 to 20 nM
Cc1c(OCCCNC2CCN(C)CC2)cccc1-c1cccc(OCCCN2CC[C@@H](O)C2)c1C	90.1 to 1000 nM
Cc1c(COc2cc(OCc3cncc(C#N)c3)c(CN[C@@H](Cc3c[nH]c4ccccc34)C(=O)O)cc2Cl)cccc1-c1cccc(COc2cc(OCc3cncc(C#N)c3)c(CN[C@@H](Cc3c[nH]c4ccccc34)C(=O)O)cc2Cl)c1C	0.04 to 20 nM
Cc1c(OCCCN2CCC(O)(C(=O)O)CC2)cccc1-c1cccc(OCCCN2CCC(O)(C(=O)O)CC2)c1Cl	0.04 to 20 nM
COc1cc(OCc2cccc(-c3cccc(COc4cc(OC)c(CNCc5cncs5)cc4Cl)c3C)c2C)c(Cl)cc1CNCc1cncs1	20.1 to 90 nM
Cc1c(OCCCN(C)Cc2cccnc2)cccc1-c1cccc(OCCCN2CC[C@@H](O)C2)c1C	90.1 to 1000 nM
N#Cc1cncc(COc2cc(OCc3cccc(-c4cccc(COc5cc(OCc6cncc(C#N)c6)c(C(=O)N6CCC(=O)CC6)cc5Cl)c4Cl)c3Cl)c(Cl)cc2C(=O)N2CCC(=O)CC2)c1	20.1 to 90 nM
Cc1c(OCCCN2CCN(CCO)CC2)cccc1-c1cccc(OCCCN2CCN(CCO)CC2)c1C	90.1 to 1000 nM
Cc1c(COc2cc(OCc3cncc(C#N)c3)c(CN[C@@](C)(CO)C(=O)O)cc2Cl)cccc1-c1cccc(COc2cc(OCc3cncc(C#N)c3)c(CN[C@@](C)(CO)C(=O)O)cc2Cl)c1C	0.04 to 20 nM
Cc1cc(OCc2cccc(-c3cccc(COc4cc(C)c(CN5CCCC[C@H]5C(=O)O)cc4C)c3C)c2C)c(C)cc1CN1CCCC[C@H]1C(=O)O	20.1 to 90 nM
